- Tested on: human leukemia (HL-60)
- measurement.description: Cytotoxicity assay (WST-8), HL-60
- Assay type: cell-based
- condition.description: Table 7; WST-8, 48 h exposure; mean ± S.D.; read-out: Cytotoxic activity (GI50) HL-60
value.kind: GI50 (µM)
Return type: number; implicit unit µM.

Task: GI50 for CC(C)C1=Cc2ccc3c(c2C(=O)C1=O)C(=O)CCC3(C)C [Compound 19, 1-oxomiltirone] ?
Result: 23.3

---

- measurement.description: Cytotoxicity assay (WST-8), MRC-5
- Type: cell-based, human
- condition.description: human; Table 7; normal lung cells; WST-8, 48 h exposure; mean ± S.D.; read-out: Cytotoxic activity (GI50) MRC-5
value.kind: GI50 at 48 h (µM)
Return type: number; implicit unit µM.

Task: GI50 at 48 h for CC(C)C1=C(O)C(=O)C2=C(C=CC3C(C)(C)CCC[C@]23C)C1=O (stereo partly shown) [Compound 21, 6,7-dehydroroyleanone] ?
Result: 40.2

---

- Test system: human non-small cell lung cancer (A549)
- measurement.description: Cytotoxicity assay (WST-8), A549
- Type: cell-based
- condition.description: Table 7; WST-8, 48 h exposure; mean ± S.D.; read-out: Cytotoxic activity (GI50) A549
value.kind: GI50 (µM)
Return type: number; implicit unit µM.

Task: GI50 for CC(C)C1=Cc2ccc3c(c2C(=O)C1=O)C(=O)CCC3(C)C ?
Result: 24.9

---

- System: human prostate cancer (PC-3)
- measurement.description: Cytotoxicity assay (WST-8), PC-3
- Type: cell-based
- condition.description: Homo sapiens; Table 7; WST-8, 48 h exposure; mean ± S.D.; read-out: Cytotoxic activity (GI50) PC-3
Field: GI50. Provide a value for each of the compounds that follow.

Task: GI50 for CC(C)C1=C(O)C(=O)C2=C(CC[C@H]3C(C)(C)CCC[C@]23C)C1=O ?
Result: 27.1 µM

Task: // query: CC(C)c1cc2c(cc1O)[C@@]1(C)CCCC(C)(C)[C@@H]1CC2=O
Result: > 100 µM

Task: // query: CC(C)c1cc2ccc3c(c2cc1O)CCCC3(C)C [Compound 17, 12-hydroxy simonellite]
Result: 43.6 µM

Task: // query: CC(C)c1cc2c(cc1O)[C@@]1(C)CCCC(C)(C)C1=C(O)C2=O
Result: 13.2 µM

Task: // query: CC(C)c1cc2c(cc1O)[C@@]1(C)CCCC(C)(C)[C@@H]1CC2
Result: 56.5 µM

---

- Test system: human exocrine pancreatic cancer (PANC-1)
- measurement.description: Cytotoxicity assay (WST-8), PANC-1
- Format: cell-based
- condition.description: Table 7; WST-8, 48 h exposure; mean ± S.D.; read-out: Cytotoxic activity (GI50) PANC-1
value.kind: GI50

Task: GI50 for CC(C)C1=Cc2ccc3c(c2C(=O)C1=O)C(=O)CCC3(C)C ?
Result: 32.1 µM

Task: // query: CC(C)c1ccc2c3c(ccc2c1)C(C)(C)CCC3
Result: > 100 µM

---

Field: GI50. Provide a value for each of the compounds that follow.
- Test system: human exocrine pancreatic cancer (BxPC-3)
- measurement.description: Cytotoxicity assay (WST-8), BxPC-3
- Assay type: cell-based
- condition.description: Homo sapiens, BXPC-3; Table 7; WST-8, 48 h exposure; mean ± S.D.; read-out: Cytotoxic activity (GI50) BxPC-3
Return type: number; implicit unit µM.

Task: GI50 for CC(C)C1=C(O)C(=O)C2=C(CC[C@H]3C(C)(C)CCC[C@]23C)C1=O ?
Result: 51

Task: // query: CC(C)c1cc2c(cc1O)[C@@]1(C)CCCC(C)(C)C1=C(O)C2=O
Result: 25

Task: // query: CC(C)c1cc2c(cc1O)[C@@]1(C)CCCC(C)(C)[C@@H]1CC2=O
Result: 36.1

Task: // query: CC(C)c1cc2ccc3c(c2cc1O)CCCC3(C)C [Compound 17, 12-hydroxy simonellite]
Result: 36.4

Task: // query: CC(C)c1cc2c(cc1O)[C@@]1(C)CCCC(C)(C)[C@@H]1CC2
Result: 21.1

---

- System: human prostate cancer (PC-3)
- measurement.description: Cytotoxicity assay (WST-8), PC-3
- Type: cell-based
- condition.description: Homo sapiens; Table 1; read-out: Activity against human prostate tumor PC-3 (GI50) (converted)
Threshold-based label: GI50 under 50 µM gives label 1, GI50 not under 50 µM gives label 0.

Task: Input CC(C)c1cc2ccc3c(c2cc1O)CCCC3(C)C [Compound 17, 12-hydroxy simonellite] ; condition: GI50 strictly below 50 µM. Does it hold?
Result: label 1

Task: // query: CC(C)c1cc2c(c(O)c1O)[C@@]1(C)CCCC(C)(C)[C@@H]1CC2=O [Compound 12, 11-hydroxysugiol]
Result: label 1

Task: // query: CC(C)c1cc2c(cc1O)[C@@]1(C)CCCC(C)(C)[C@@H]1C[C@H]2CC1=CCC(O)(C(C)C)CC1 (some centres unmarked) [Compound 6, 7-(menth-1-en-4-ol)-ferruginol]
Result: label 0

Task: // query: CC(C)c1cc2c(cc1O)[C@@]1(C)CCCC(C)(C)C1CC2O (some centres unmarked) [Compound 15, 7-hydroxyferruginol]
Result: label 0

Task: // query: CC(C)c1cc2c(cc1O)[C@@]1(C)CCCC(C)(C)C1C=C2 (some centres unmarked) [Compound 16, 6,7-dehydroferruginol]
Result: label 0

---

Field: GI50 at 48 h. Provide a value for each of the compounds that follow.
- measurement.description: Cytotoxicity assay (WST-8), MRC-5
- Assay type: cell-based, human
- condition.description: human
Return type: number; implicit unit µM.

Task: GI50 at 48 h for CC(C)c1cc2c(c(O)c1O)[C@@]1(C)CCCC(C)(C)[C@@H]1CC2=O [Compound 12, 11-hydroxysugiol] ?
Result: 40.2

Task: // query: CC(C)c1cc2c(cc1O)[C@@]1(C)CCCC(C)(C)C1C=C2 (stereo partly shown) [Compound 16, 6,7-dehydroferruginol]
Result: 59.2

Task: // query: CC(C)c1cc2c(c(O)c1O)[C@@]1(C)CCCC(C)(C)C1=C(O)C2=O
Result: 24.8

Task: // query: CC(C)c1cc2c(cc1O)[C@@]1(C)CCCC(C)(C)C1CC2O (stereo partly shown) [Compound 15, 7-hydroxyferruginol]
Result: 70.5

Task: // query: CC(C)c1cc2c(cc1O)[C@@]1(C)CCCC(C)(C)C1=C(O)C2=O
Result: 20

Task: // query: CC(C)C1=C(O)C(=O)C2=C(CC[C@H]3C(C)(C)CCC[C@]23C)C1=O
Result: 45.7

---

- Tested on: normal human lung fibroblasts cells (MRC-5)
- measurement.description: Cytotoxicity assay (WST-8), MRC-5
- Type: cell-based
- condition.description: human, 48 h
Field: GI50. Provide a value for each of the compounds that follow.
Return type: number; implicit unit µM.

Task: Given the entry CC(C)c1cc2ccc3c(c2cc1O)CCCC3(C)C [Compound 17, 12-hydroxy simonellite] , what GI50 was observed with normal human lung fibroblasts cells (MRC-5)?
Result: 55.4

Task: // query: CC(C)c1cc2c(cc1O)[C@@]1(C)CCCC(C)(C)[C@@H]1C[C@H]2CC1=CCC(O)(C(C)C)CC1 (stereo partly shown)
Result: 58.4

Task: // query: CC(C)c1cc2c(cc1O)[C@@]1(C)CCCC(C)(C)[C@@H]1CC2
Result: 40

---

- Tested on: human exocrine pancreatic cancer (BxPC-3)
- measurement.description: Cytotoxicity assay (WST-8), BxPC-3
- Assay type: cell-based
- condition.description: Homo sapiens, BXPC-3, 48 h, read-out: Cytotoxic activity (GI50) BxPC-3
Field: GI50. Provide a value for each of the molecules that follow.
Return type: number; implicit unit µM.

Task: GI50 for CC(C)c1cc2c(cc1O)[C@@]1(C)CCCC(C)(C)C1CC2O (stereo partly shown) [Compound 15, 7-hydroxyferruginol] ?
Result: 74.7

Task: // query: CC(C)c1cc2c(cc1O)[C@@]1(C)CCCC(C)(C)[C@@H]1C[C@H]2CC1=CCC(O)(C(C)C)CC1 (stereo partly shown)
Result: 87.3

Task: // query: CC(C)c1cc2c(c(O)c1O)[C@@]1(C)CCCC(C)(C)C1=C(O)C2=O
Result: 37.3

---

- System: normal human lung fibroblasts cells (MRC-5)
- measurement.description: Cytotoxicity assay (WST-8), MRC-5
- Format: cell-based
value.kind: GI50 (µM)
Return type: number; implicit unit µM.

Task: GI50 for CC(C)C1=Cc2ccc3c(c2C(=O)C1=O)C(=O)CCC3(C)C ?
Result: 20.4

---

- Test system: human exocrine pancreatic cancer (BxPC-3)
- measurement.description: Cytotoxicity assay (WST-8), BxPC-3
- Assay type: cell-based
- condition.description: Homo sapiens, BXPC-3, 48 h, read-out: Cytotoxic activity (GI50) BxPC-3
Field: GI50. Provide a value for each of the molecules that follow.
Return type: number; implicit unit µM.

Task: GI50 for CC(C)C1=C(O)C(=O)C2=C(C=CC3C(C)(C)CCC[C@]23C)C1=O (stereo partly drawn) [Compound 21, 6,7-dehydroroyleanone] ?
Result: 41.7

Task: // query: CC(C)c1cc2c(cc1O)[C@@]1(C)CCCC(C)(C)C1C=C2 (stereo partly drawn) [Compound 16, 6,7-dehydroferruginol]
Result: 37.5

Task: // query: CC(C)c1cc2c(c(O)c1O)[C@@]1(C)CCCC(C)(C)[C@@H]1CC2=O [Compound 12, 11-hydroxysugiol]
Result: 45
